Each recorded value in this set is attributed to paper PMC10397247.

Target: T1, 4H56-bN
T1 chain: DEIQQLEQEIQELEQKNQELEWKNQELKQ
Experiment: two-hybrid library CCNG1;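 note: natural log of median RNA to DNA barcode read ratio; higher means stronger binding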
measurementType: interaction score
Number only, please.

Use these answered entries as a reference point.
DEIQQLEQKIQELKQENQELKWKIQELEQ [4H349-bN]    -0.3
DEIQQLEQEIQELEQKNQELEWKNQELKQ [4H56-bN]    0.863
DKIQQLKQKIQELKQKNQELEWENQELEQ [4H2931-bN]    0.0366
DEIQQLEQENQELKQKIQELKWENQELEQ [4H235-bN]    -0.626
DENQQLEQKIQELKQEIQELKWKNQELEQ [4H1359-bN]    -1.25

Moving on to the next binder.
Which interaction score is listed for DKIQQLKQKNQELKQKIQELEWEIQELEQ [4H3041-bN] ?
-0.997
